B1: EPB41L3 (parent)
chain: SELGDYDPDECGSDYISEFRFAPN

Variants of: B1
Test: protein stability index of a GFP-peptide fusion (GPS, HEK-293T) (PSI 1-6); higher = more stable;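 note: lentivirally expressed fusions sorted by FACS into six bins by GFP to DsRed ratio, PSI derived from sequencing read proportions per bin multiplied by bin number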
Details: c terminus: a fixed tail appended
MEASUREMENT_NAME: protein stability index
Please state the value as a number alone, without comment.

// query protein stability index value for entry L3M
2.02

Param item: C11Q
2.49

Value source: the supplement of paper PMC10567573
